Each record here notes measured FACS signal.
# targetEntity: human CLDN6 fused to GFP, expressed on engineered HEK293T cells (human) (UniProt P56747)
# experimentalDetails: FACS, 293T clone with human CLDN6, 0.3 ug Ab
Respond using a number only.

Would you please look over these solved cases?
**Q:** Identify measured FACS signal corresponding to AB11-chim (antibody, V domains shown) VH: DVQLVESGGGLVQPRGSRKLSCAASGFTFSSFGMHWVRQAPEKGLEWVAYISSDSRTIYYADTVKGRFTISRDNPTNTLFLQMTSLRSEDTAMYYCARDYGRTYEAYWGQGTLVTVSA VL: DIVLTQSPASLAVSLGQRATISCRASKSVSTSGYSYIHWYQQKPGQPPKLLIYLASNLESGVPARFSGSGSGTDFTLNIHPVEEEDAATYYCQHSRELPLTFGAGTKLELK
**A:** 1670

**Q:** Identify measured FACS signal corresponding to AB3-3 (antibody, V domains shown) VH: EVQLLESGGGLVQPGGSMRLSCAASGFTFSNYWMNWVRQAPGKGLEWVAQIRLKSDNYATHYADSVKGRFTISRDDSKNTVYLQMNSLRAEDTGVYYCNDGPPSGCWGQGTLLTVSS VL: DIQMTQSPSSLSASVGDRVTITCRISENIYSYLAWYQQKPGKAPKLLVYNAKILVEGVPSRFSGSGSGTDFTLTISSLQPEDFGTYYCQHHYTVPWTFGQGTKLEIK
**A:** 251000

**Q:** Identify measured FACS signal corresponding to AB4-5 (antibody, V domains shown) VH: QVQLVQSGAEVKKPGASVKMSCKASGYTFTSYTMHWIRQAPGQGQEWIGYINPSSTYTHYAQKFQGRATLTADTSTSTAYMELSSLRSEDTAVYYCSRGELGGFAYWGQGTLVTVSS VL: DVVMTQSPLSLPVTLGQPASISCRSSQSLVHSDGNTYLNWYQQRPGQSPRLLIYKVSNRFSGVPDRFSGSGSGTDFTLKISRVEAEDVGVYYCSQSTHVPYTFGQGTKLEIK
**A:** 16800

**Q:** Identify measured FACS signal corresponding to AB4-12 (antibody, V domains shown) VH: QVQLVQSGAEVKKPGASVKMSCKASGYTFTSYTMHWIRQAPGQGQEWIGYINPSSTYTHYIKKFKDRATLTADKSTSTAYMELSSLRSEDTAVYYCSRGELGGFAYWGQGTLVTVSS VL: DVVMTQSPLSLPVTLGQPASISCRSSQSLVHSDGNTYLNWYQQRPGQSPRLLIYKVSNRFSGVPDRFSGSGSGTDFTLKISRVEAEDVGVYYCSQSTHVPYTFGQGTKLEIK
**A:** 71100

Let us examine a further case.
**Q:** Identify measured FACS signal corresponding to AB18-4 (antibody, V domains shown) VH: QVQLVQSGAEVKKPGASVKVSCKASGYSFTGYNMNWVRQAPGQGLEWMGNIDPYYGGSTYAQKFQGRVTMTVDTSTSTVYMELSSLRSEDTAVYYCARERSGYVFSAMDYWGQGTLVTVSS VL: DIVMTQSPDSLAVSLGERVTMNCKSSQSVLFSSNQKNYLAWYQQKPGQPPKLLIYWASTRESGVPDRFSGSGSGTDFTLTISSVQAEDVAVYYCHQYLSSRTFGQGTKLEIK
**A:** 32400
